Hello, the source for this data is patent US10626105B2, in case you need it.

Assay: In vitro human liver microsomal stability assay
Format: in vitro ADME
Conditions: human liver microsomes 0.5 mg/mL protein, NADPH 2 mM, pH 7.4, 1 μM test compound, 37 °C, 0-45 min; change relative to non-deuterated (d0) comparative compound
experimental.endpoint: Clearance % change over d0 (%)

compound: [2H]C([2H])(NCC1(F)CCN(C(=O)c2ccc(F)c(Cl)c2)CC1)c1ncc(C)cn1
assay.result: 3.7

compound: [2H]C(NCc1ncc(C)cn1)C1(F)C([2H])([2H])C([2H])([2H])N(C(=O)c2ccc(F)c(Cl)c2)C([2H])([2H])C1([2H])[2H] (stereo not shown)
assay.result: −0.9

compound: [2H]C([2H])([2H])c1ccc(C([2H])([2H])NCC2(F)CCN(C(=O)c3ccc(F)c(Cl)c3)CC2)nc1
assay.result: −5.1

compound: Cc1cnc(CNCC2(F)CCN(C(=O)c3ccc(F)c(Cl)c3)CC2)nc1 [Example 8, reference compound]
assay.result: 0

compound: [2H]C([2H])([2H])c1ccc(CNCC2(F)CCN(C(=O)c3ccc(F)c(Cl)c3)CC2)nc1
assay.result: −5.

compound: [2H]C([2H])([2H])c1ccc(C([2H])([2H])NC([2H])([2H])C2(F)CCN(C(=O)c3ccc(F)c(Cl)c3)CC2)nc1
assay.result: −9.1

compound: [2H]C([2H])([2H])c1cnc(CNCC2(F)CCN(C(=O)c3ccc(F)c(Cl)c3)CC2)nc1
assay.result: 8.4

compound: [2H]C([2H])(NCc1ncc(C)cn1)C1(F)CCN(C(=O)c2ccc(F)c(Cl)c2)CC1
assay.result: 2.1

compound: [2H]C(NCc1ccc(C)cn1)C1(F)C([2H])([2H])C([2H])([2H])N(C(=O)c2ccc(F)c(Cl)c2)C([2H])([2H])C1([2H])[2H] (stereo not shown)
assay.result: −5.8

compound: [2H]C([2H])(NCc1ccc(C)cn1)C1(F)CCN(C(=O)c2ccc(F)c(Cl)c2)CC1
assay.result: −7.5

compound: [2H]C([2H])([2H])c1cnc(C([2H])([2H])NCC2(F)CCN(C(=O)c3ccc(F)c(Cl)c3)CC2)nc1
assay.result: 5.5

compound: [2H]C([2H])(NCC1(F)CCN(C(=O)c2ccc(F)c(Cl)c2)CC1)c1ccc(C)cn1
assay.result: −6.7

compound: Cc1ccc(CNCC2(F)CCN(C(=O)c3ccc(F)c(Cl)c3)CC2)nc1 [Example 1, reference compound]
assay.result: 0
